# credit: patent US20230026232A1

# study_target: AHR (Rattus norvegicus, UniProt P41738)
# Construct: In rat hepatoma H411E cells treated with 100 μM L-kynurenine; endogenous in cells
# Sequence (P41738 10-853): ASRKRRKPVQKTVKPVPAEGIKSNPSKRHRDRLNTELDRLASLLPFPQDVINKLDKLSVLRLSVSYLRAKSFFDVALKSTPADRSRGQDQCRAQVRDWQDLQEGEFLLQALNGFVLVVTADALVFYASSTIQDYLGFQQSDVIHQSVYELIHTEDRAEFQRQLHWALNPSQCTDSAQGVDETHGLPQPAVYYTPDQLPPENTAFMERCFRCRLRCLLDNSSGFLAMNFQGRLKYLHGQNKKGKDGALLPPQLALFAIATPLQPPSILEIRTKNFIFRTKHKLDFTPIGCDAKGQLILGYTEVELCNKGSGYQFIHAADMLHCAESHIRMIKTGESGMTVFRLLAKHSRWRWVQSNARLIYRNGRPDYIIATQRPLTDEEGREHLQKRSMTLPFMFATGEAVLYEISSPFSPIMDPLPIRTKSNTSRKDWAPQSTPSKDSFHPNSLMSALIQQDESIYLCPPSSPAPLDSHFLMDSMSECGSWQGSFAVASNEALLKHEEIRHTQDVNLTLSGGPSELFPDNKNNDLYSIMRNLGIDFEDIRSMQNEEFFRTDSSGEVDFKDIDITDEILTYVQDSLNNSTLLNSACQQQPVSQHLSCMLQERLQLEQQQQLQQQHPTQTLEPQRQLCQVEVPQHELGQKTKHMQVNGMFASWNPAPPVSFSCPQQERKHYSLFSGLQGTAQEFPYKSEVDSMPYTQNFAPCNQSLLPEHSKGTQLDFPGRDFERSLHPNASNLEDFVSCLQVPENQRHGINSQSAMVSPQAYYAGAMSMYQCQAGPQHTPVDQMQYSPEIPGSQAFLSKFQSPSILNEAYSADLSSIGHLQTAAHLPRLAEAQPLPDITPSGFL
# test: AHR-dependent Cyp1A1 expression (P450-Glo) in rat H411E hepatoma cells stimulated with L-kynurenine
# recorded_conditions: 100 μM L-kynurenine, 24 hours
pIC50: −log10 of the molar value.
measure: pIC50

INSERT INTO assay_data (chemical_smiles, recorded_number) VALUES
  ('CC(C)c1cnn2c(N[C@@H]3CCc4[nH]c5ccccc5c4C3)nc(-c3cncc(F)c3)nc12', 6.82);
